The origin of these recorded values is paper PMC10373739.

Biological target: ABCG2 transporter (Homo sapiens, UniProt Q9UNQ0)
Sequence (Q9UNQ0 whole entry): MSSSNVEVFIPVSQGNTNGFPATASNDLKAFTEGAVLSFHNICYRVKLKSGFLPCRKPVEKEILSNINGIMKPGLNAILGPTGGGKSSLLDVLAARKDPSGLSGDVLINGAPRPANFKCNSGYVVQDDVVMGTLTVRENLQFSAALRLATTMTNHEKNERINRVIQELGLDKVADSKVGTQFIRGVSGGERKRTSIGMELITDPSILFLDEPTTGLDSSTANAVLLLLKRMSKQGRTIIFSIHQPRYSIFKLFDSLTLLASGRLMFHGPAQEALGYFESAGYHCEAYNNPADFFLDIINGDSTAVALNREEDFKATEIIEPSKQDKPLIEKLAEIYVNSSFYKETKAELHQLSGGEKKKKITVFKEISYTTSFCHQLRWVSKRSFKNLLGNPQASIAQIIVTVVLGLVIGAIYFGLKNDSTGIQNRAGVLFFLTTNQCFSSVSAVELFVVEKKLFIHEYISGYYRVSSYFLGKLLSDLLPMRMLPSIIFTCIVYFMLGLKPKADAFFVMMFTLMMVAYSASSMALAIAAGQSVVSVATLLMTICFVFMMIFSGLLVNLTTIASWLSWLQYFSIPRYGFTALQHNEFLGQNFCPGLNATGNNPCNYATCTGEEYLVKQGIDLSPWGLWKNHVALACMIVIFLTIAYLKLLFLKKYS
Test: vanadate-sensitive ATPase assay (stimulation of basal activity) in ABCG2 membrane vesicles from High Five insect cells
pEC50: −log10 of the molar value.
READOUT_TYPE: pEC50

* NC1(c2ccc(-c3nc4ccn5c(=O)[nH]nc5c4cc3-c3ccccc3)cc2)CCC1 | 6.34
